# measured on: acetylcholine receptor
# protocol notes: SPR, acetylcholine receptor immobilized on chip, peptide at 10 uM
Entries annotated with measured Binding affinity (RU)
measurement name: Binding affinity (RU)

>  <binder>
RQYRK [5mer-300]

>  <measurement name>
Binding affinity (RU)

>  <readout units>
RU

>  <measured number>
81

$$$$
>  <binder>
KLYSK [5mer-600]

>  <measurement name>
Binding affinity (RU)

>  <readout units>
RU

>  <measured number>
64

$$$$
>  <binder>
KGRRK [5mer-299]

>  <measurement name>
Binding affinity (RU)

>  <readout units>
RU

>  <measured number>
62

$$$$
>  <binder>
KWVSR [5mer-599]

>  <measurement name>
Binding affinity (RU)

>  <readout units>
RU

>  <measured number>
61

$$$$

Just for reference, patent US20250011363A1 is where these values come from.
